Some compounds, each annotated with its measured z-score.
# assay text: E. coli acrAB mutant growth effects, primary screen, E. coli filamentation inducers, strain DRC39, OD650, 48 h (AID 1179);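 note: screen aims at cell division blockers that make cells filament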
# assay conditions: E. coli DRC39 delta-acrAB growth, higher = more signal, called active from +8 up or from −8 down
quantity kind: z-score

{"compound": "C=CCNC(=O)[C@@H]1[C@H]2C(=O)O[C@H](c3ccccc3)[C@H](c3ccccc3)N2[C@H](c2ccc(O)cc2)[C@@]12C(=O)Nc1ccc(C#CC3=CCCCC3)cc12", "quantity kind": "z-score", "measured": 0.254}
{"compound": "O=C1C2C=CC(C(O)C(c3ccccc3)c3ccccc3)N(Nc3ccccc3F)C2C(=O)N1c1ccccc1 (stereo unspecified)", "quantity kind": "z-score", "measured": -0.82}
{"compound": "CCOC(=O)C1=CCC(c2cccn2C(=O)OC(C)(C)C)N(S(=O)(=O)c2ccc(C)cc2)C1 (stereo unspecified)", "quantity kind": "z-score", "measured": 0.605}
{"compound": "O=C1NC(=O)C2C1C=CC(C(O)C(c1ccccc1)c1ccccc1)N2Nc1ccccn1 (stereo unspecified)", "quantity kind": "z-score", "measured": -0.284}
{"compound": "C=CCOC(=O)[C@@H]1[C@H]2C(=O)O[C@H](c3ccccc3)[C@H](c3ccccc3)N2[C@H](c2ccc(OCCOC(=O)[C@H]3C[C@H]4C(=O)N[C@@H](CCCCN(C)C)C(=O)N4[C@H]3c3cccc(OCCO)c3)cc2)[C@@]12C(=O)Nc1ccccc12", "quantity kind": "z-score", "measured": 0.352}
{"compound": "CCOC(=O)C[C@H]1[C@H](OC(=O)c2ccc(-c3ccccc3)cc2)[C@@H](NC(=O)c2ccc(-c3ccccc3)cc2)c2cc(OCCCO)ccc2N1C(=O)c1ccccc1", "quantity kind": "z-score", "measured": -0.331}

###

# experimental target: Neurogenic locus notch homolog protein 3 (Homo sapiens) (UniProt Q9UM47)
# Sequence (Q9UM47 whole entry, looked up): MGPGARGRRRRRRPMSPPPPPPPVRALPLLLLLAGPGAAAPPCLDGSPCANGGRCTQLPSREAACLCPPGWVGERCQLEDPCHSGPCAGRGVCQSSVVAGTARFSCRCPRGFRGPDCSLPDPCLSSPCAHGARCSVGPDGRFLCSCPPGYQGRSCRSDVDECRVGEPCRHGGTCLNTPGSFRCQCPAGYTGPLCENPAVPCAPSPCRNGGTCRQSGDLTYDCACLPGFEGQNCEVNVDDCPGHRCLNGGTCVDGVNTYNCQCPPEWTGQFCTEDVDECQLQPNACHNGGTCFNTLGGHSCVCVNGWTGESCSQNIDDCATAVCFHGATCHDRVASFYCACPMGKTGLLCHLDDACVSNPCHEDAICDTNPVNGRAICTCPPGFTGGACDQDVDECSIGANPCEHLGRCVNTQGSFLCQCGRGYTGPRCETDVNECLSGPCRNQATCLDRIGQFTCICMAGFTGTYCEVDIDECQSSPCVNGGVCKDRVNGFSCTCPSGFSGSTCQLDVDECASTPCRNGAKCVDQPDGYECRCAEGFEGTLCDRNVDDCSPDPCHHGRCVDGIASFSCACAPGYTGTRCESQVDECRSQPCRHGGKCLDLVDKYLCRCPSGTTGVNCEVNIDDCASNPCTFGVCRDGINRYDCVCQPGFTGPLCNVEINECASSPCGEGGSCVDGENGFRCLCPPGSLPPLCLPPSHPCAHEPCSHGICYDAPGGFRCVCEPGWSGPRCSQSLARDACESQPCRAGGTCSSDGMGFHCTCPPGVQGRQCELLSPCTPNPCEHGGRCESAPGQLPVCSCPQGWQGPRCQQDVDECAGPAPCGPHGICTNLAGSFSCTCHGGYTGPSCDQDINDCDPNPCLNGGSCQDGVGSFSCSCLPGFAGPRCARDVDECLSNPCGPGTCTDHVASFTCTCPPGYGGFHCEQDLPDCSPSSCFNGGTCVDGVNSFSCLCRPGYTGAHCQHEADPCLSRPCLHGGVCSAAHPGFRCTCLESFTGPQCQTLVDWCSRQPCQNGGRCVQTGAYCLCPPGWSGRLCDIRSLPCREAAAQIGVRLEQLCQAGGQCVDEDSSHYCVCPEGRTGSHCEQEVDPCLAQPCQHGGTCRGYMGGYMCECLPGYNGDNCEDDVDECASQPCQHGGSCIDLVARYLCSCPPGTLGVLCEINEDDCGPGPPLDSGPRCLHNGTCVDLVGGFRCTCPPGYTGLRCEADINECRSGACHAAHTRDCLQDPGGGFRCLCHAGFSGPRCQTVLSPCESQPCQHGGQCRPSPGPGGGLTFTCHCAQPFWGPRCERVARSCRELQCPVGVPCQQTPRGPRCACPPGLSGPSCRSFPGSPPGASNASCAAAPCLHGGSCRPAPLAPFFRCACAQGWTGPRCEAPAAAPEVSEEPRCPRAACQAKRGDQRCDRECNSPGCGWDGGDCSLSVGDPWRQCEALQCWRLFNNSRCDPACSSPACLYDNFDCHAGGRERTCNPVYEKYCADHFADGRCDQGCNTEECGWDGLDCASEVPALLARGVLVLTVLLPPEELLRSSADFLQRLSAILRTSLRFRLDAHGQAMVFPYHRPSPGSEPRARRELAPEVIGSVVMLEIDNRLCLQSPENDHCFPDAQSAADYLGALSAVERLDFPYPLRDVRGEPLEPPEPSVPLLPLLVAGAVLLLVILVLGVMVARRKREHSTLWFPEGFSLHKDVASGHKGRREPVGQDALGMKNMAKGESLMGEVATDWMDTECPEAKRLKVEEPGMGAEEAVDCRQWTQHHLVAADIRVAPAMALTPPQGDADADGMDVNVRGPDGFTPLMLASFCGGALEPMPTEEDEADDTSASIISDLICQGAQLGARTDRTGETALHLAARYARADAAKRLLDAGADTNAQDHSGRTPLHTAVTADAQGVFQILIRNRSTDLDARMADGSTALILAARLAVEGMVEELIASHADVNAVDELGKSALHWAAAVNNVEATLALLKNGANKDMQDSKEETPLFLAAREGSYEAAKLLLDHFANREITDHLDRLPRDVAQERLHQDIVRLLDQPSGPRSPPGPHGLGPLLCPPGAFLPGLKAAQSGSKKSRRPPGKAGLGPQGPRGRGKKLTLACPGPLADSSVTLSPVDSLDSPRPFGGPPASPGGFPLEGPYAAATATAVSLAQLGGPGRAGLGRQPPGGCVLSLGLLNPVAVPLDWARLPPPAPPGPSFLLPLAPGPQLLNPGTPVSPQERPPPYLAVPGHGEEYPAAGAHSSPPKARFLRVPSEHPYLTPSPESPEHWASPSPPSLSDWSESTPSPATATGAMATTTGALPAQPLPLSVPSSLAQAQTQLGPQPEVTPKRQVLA
# assay text: NOTCH3 binders on small-molecule microarray, primary screen, biochemical, 635/667 nm fluorescence (AID 1096)
# assay conditions: NOTCH3 binding, 635 nm fluorescence, higher = more signal

{"chem smiles": "COc1ccc([Si](C)(C)[C@@H]2[C@@H](CC(=O)N(CCO)Cc3ccccc3)O[C@]3(C(=O)N(Cc4cccc(I)c4)c4ccccc43)[C@H]2C)cc1", "composite z-score": 1.07}
{"chem smiles": "COc1ccc([Si](C)(C)[C@@H]2[C@@H](CC(=O)N3CCC[C@H]3CO)O[C@]3(C(=O)N(Cc4cccc(N5C(=O)c6cccc7cccc5c67)c4)c4ccccc43)[C@H]2C)cc1", "composite z-score": 0.368}
{"chem smiles": "COc1ccc(C(=O)Nc2ccc(CN3C(=O)[C@@]4(O[C@@H](CC(=O)N(CCO)Cc5ccccc5)[C@H]([Si](C)(C)c5ccc(OC)cc5)[C@H]4C)c4ccccc43)cc2)cc1", "composite z-score": 0.217}
{"chem smiles": "C=CC[C@H](O)c1ccc(O)c2ccccc12", "composite z-score": 1.07}
{"chem smiles": "C=CCOC(=O)[C@H]1[C@@H]2C(=O)O[C@@H](c3ccccc3)[C@@H](c3ccccc3)N2[C@@H](c2ccc(OCCOC(=O)[C@H]3C[C@H]4C(=O)NCC(=O)N4[C@H]3c3cccc(OCCO)c3)cc2)[C@]12C(=O)Nc1ccc(I)cc12", "composite z-score": 1.06}
{"chem smiles": "COCCCNC(=O)[C@]1(Cc2ccccc2CN=[N+]=[N-])N=C(c2ccc(OCCCO)cc2)O[C@@H]1c1ccccc1N=[N+]=[N-]", "composite z-score": -0.217}
{"chem smiles": "O=C1O[C@H](c2ccccc2)[C@H](c2ccccc2)N2[C@H]1[C@@H](C(=O)Nc1nc3ccccc3s1)[C@]1(C(=O)Nc3ccccc31)[C@H]2c1ccccc1OCCO", "composite z-score": 0.595}
{"chem smiles": "CC(C)(C)OC(=O)CC[C@@]1(C(=O)N2CCOCC2)N=C(c2ccc(OCCCO)cc2)O[C@@H]1c1ccccc1CN=[N+]=[N-]", "composite z-score": 0.985}
{"chem smiles": "CCOC(=O)C[C@H]1[C@H](OC(=O)c2ccc(-c3ccccc3)cc2)[C@@H](NC(=O)C2CCCCC2)c2cc(OCCCO)ccc2N1C(=O)Cc1ccc(OC)cc1", "composite z-score": 0.375}
{"chem smiles": "C=CC[C@@]1(C(=O)NCCCOC)N=C(c2ccc(OCCCO)cc2)O[C@@H]1c1ccccc1CN=[N+]=[N-]", "composite z-score": 1.12}
{"chem smiles": "COC(=O)c1c2oc(c1C(=O)OC)C(=O)N[C@H](Cc1ccccc1)Cn1cc(nn1)C1(CCCCC1)NC(=O)N[C@H](CO)CC2", "composite z-score": -0.147}
{"chem smiles": "COc1ccc(C(=O)Nc2ccc(CN3C(=O)[C@]4(O[C@H](CC(=O)N(CCO)Cc5ccccc5)[C@@H]([Si](C)(C)c5ccc(OC)cc5)[C@@H]4C)c4ccccc43)cc2)cc1", "composite z-score": 0.565}
{"chem smiles": "COc1ccc(CCNC(=O)[C@@]2(c3ccc([N+](=O)[O-])cc3)CC(=O)N(C3CCCCC3)[C@@H]2c2ccc(CO)cc2I)cc1", "composite z-score": 0.594}
